Tested on: Fibroblast
Experiment: Multiplex assay against human fibroblast
Format: toxicity, cell-based
Conditions: 24 h, 10 µM, compound concentration 10 uM, replicate 2
outcome_measure: Population Apoptotic (%)
Numeric only. Scale: %

Example entries begin here.
CCC(=O)OCC(=O)[C@@]1(OC(=O)CC)[C@@H](C)C[C@H]2[C@@H]3CCC4=CC(=O)C=C[C@]4(C)[C@@]3(Cl)[C@@H](O)C[C@@]21C [BECLOMETHASONE DIPROPIONATE] :: 19
Cn1cc(C(=O)OCC2CCN(CCNS(C)(=O)=O)CC2)c2ccccc21 :: 41
O=C(O)CCC/C=C\CC1C(O)CC(O)C1/C=C/C(O)COc1cccc(Cl)c1 (stereo not drawn) :: 59
C[C@@H]1CC(=O)Nc2cccc(-c3ccc4c(c3)c(-c3cnn(C)c3)nn4C)c2N1 :: 42
S=C(NCCCc1c[nH]cn1)NCCCN(Cc1ccc(Cl)c(Cl)c1)c1ccc(Br)cn1 :: 61

Summary for this compound, CC(C)(C)c1ccc(CSc2cnn(C(C)(C)C)c(=O)c2Cl)cc1 : Population Apoptotic (%) is 54

// sample COc1cc(C(=O)N2CC[C@@H](O)[C@@H](N)C2)cc2nc(-c3cc4ccccc4n3CC3CC3)n(C)c12.Cl , its Population Apoptotic (%) was 62

compound Cc1cc(-c2ccc3c(c2)CC[C@H]3N2CC3(CCN(C(=O)Cc4cn5cc(C)sc5n4)CC3)C2)ncn1 , Population Apoptotic (%) observed: 53
